experiment: qHTS profiling of the MIPE4 collection as inhibitors of Plasmodium falciparum (DD2) proliferation (Rep 2) (AID 743346); conditions: P. falciparum Dd2 in erythrocytes, SYBR Green DNA, 72 h; at 28.5 µM unless noted
Property: parasite growth, % of control (lower = inhibition); scope: individual compounds
parameter: parasite growth, % of control (lower = inhibition) (%)

[
  {
    "item.smiles": "COc1ccc(CCC(=O)Nc2nc3ccc(Cl)cc3s2)cc1OC",
    "unit.tag": "%",
    "endpoint.result": 46.1
  },
  {
    "item.smiles": "C=C1C[C@@]2(O)O[C@@]3(C[C@H]2C(C)C)[C@H](C)CC[C@H]13",
    "unit.tag": "%",
    "endpoint.result": 48.2
  },
  {
    "item.smiles": "CC(=O)[C@H]1CC[C@H]2[C@@H]3CCC4=CC(=O)CC[C@]4(C)[C@H]3CC[C@]12C",
    "unit.tag": "%",
    "endpoint.result": 30.4
  },
  {
    "item.smiles": "CC(C)OC(=O)[C@H](C)N[P@](=O)(OC[C@H]1O[C@@H](n2ccc(=O)[nH]c2=O)[C@](C)(F)[C@H]1O)Oc1ccccc1",
    "unit.tag": "%",
    "endpoint.result": 78.3
  },
  {
    "item.smiles": "C=C(C)[C@@H]1CC[C@]2(C(=O)O)CC[C@]3(C)[C@H](CC[C@@H]4[C@@]5(C)CC[C@H](O)C(C)(C)[C@@H]5CC[C@]43C)[C@@H]12",
    "unit.tag": "%",
    "endpoint.result": 97
  },
  {
    "item.smiles": "CN[C@H](CC(C)C)C(=O)N[C@H]1C(=O)N[C@@H](CC(N)=O)C(=O)N[C@@H]2C(=O)N[C@H]3C(=O)N[C@H](C(=O)N[C@H](C(=O)O)c4cc(O)cc(O)c4-c4cc3ccc4O)[C@H](O)c3ccc(c(Cl)c3)Oc3cc2cc(c3O[C@@H]2O[C@H](CO)[C@@H](O)[C@H](O)[C@@H]2O[C@H]2C[C@](C)(N)[C@H](O)[C@H](C)O2)Oc2ccc(cc2Cl)[C@H]1O",
    "unit.tag": "%",
    "endpoint.result": 150
  }
]
